System: Tau plaque particles
Experiment: Mass spectroscopy proteomics, semi-quantitative binding affinity of serum proteins (plaqueproteome, Table 2)
Parameters: species or system human
Conditions: higher number = stronger affinity
measurement_name: Semi-quantitative analysis of proteins binding to different plaque particles: Tau
Number only, no unit.

Completed entries (count: 3):
Apolipoprotein C-II (protein) TQQPQQDEMPSPTFLTQVKESLSSYWESAKTAAQNLYEKTYLPAVDEKLRDLYSKSTAAMSTYTGIFTDQVLSVLKGEE ... 0
Ig heavy chain V-III region WEA (protein) EVQLVESGGGLVQPGGSLRLSCAASGFTFSSYEMNWVRQAPGKGLEWVSYISSSGSTIYYADSVKGRFTISRDNAKNSLYLQMNSLRAEDTAVYYCAR ... 1
Apolipoprotein F (protein) SLPTEDCENEKEQAVHNVVQLLPGVGTFYNLGTALYYATQNCLGKARERGRDGAIDLGYDLLMTMAGMSGGPMGLAISAALKPALRSGVQQLIQYYQDQKDANISQPETTKEGLRAISDVSDLEETTTLASFISEVVSSAPYWGWAIIKSYDLDPGAGSLEI ... 1

As a next step, examine the molecule that follows.
The recorded Semi-quantitative analysis of proteins binding to different plaque particles: Tau for entry Protein S100-A7 (protein) SNTQAERSIIGMIDMFHKYTRRDDKIEKPSLLTMMKENFPNFLSACDKKGTNYLADVFEKKDKNEDKKIDFSEFLSLLGDIATDYHKQSHGAAPCSGGSQ equals 0
